The values you see were collected from patent US20160264674A1.

Molecular target: T1, FLAG-tagged human APRIL (human, UniProt O75888 105-250, limits assumed)
T1 construct: also called FLAG-tagged APRIL; FLAG-APRIL; not shown: FLAG tag
T1 sequence (looked up): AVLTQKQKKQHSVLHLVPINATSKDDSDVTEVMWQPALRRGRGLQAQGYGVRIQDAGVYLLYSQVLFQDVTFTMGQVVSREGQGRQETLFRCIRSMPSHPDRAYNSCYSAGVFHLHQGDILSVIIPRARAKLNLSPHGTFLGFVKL
Experiment: competition ELISA: antibody premixed with FLAG-tagged APRIL, added to coated Fc-BCMA, anti-FLAG HRP
QUANTITY: pIC50
Field pIC50 (float): negative decimal logarithm of the concentration in molar.

## Input State the recorded pIC50 for this entry: VH14_1E.VL15 (antibody, human IgG4, V domains shown, VH14_1 with Q1E; Rest is human IgG4 (S241P, Kabat) and human kappa; also called 14_1E.15) VH: EVQLVQSGAEVKKPGASVKVSCKASGYTFTSYVMHWVRQAPGQGLEWMGYINPYNDAPKYNEKFKGRVTMTSDTSASTAYMELSSLRSDDTAVYYCARGLGYALYYAMDYWGQGTTVTVSS VL: DIVMTQSPSTLSASVGDRVTITCKASQNVGNNVAWYQQKPGKAPKLLISSASNRDSGVPSRFSGSGSGTEFTLTISSLQPDDFATYFCQQYNIYPFTFGQGTKLEIK
## Output 8.76

## Input Try this binder too: hAPRIL.01A (antibody, mouse IgG1, kappa, V domains shown, Mouse antibody; also called mouse hAPRIL.01A antibody) VH: EVQLQQSGPELVKPGASVKMSCKASGYTFTSYVMHWVKQKPGQGLEWIGYINPYNDAPKYNEKFKGKATVTSDKSSGTAYMELSSLTSEDSAVYYCARGLGYALYYAMDYWGQGTSVTVSS VL: DIVMTQSQKFKSTSVGDRVSVTCKASQNVGNNVAWYQQKAGQSPKALISSASNRDSGVPDRFTGSGSGTDFTLTISNVQSEDLADYFCQQYNIYPFTFGSGTKLEIKR
## Output 9.34

## Input Same question for VH14_1G.VL15 (antibody, human IgG4 S228P, kappa, V domains shown, VH14_1 with R67K and V68A; Humanized IgG4 (S241P, Kabat) with human kappa; also called 14_1G.15; 14_1 G.15) VH: QVQLVQSGAEVKKPGASVKVSCKASGYTFTSYVMHWVRQAPGQGLEWMGYINPYNDAPKYNEKFKGKATMTSDTSASTAYMELSSLRSDDTAVYYCARGLGYALYYAMDYWGQGTTVTVSS VL: DIVMTQSPSTLSASVGDRVTITCKASQNVGNNVAWYQQKPGKAPKLLISSASNRDSGVPSRFSGSGSGTEFTLTISSLQPDDFATYFCQQYNIYPFTFGQGTKLEIKR please.
## Output 8.87
